- assay notes: Pharmacokinetic evaluation in rat
- Type: in vivo
- run conditions: male, Sprague-Dawley, plasma, 5 mg/kg, oral, Table 3, read-out: Pharmacokinetic area under the plasma concentration Curve (rat) AUC
Provide the reported AUC of each item.
The figure you give is taken to be in µM·h; do not add the unit.

State its AUC: O=C(NS(=O)(=O)c1ccc(N[C@H](CCN2CC3CC2CO3)CSc2ccccc2)c(S(=O)(=O)C(F)(F)F)c1)c1ccc(N2CCN(CC3=C(c4ccc(Cl)cc4)CCCC3)CC2)cc1 (stereo partly drawn)
1.88

State its AUC: O=C(NS(=O)(=O)c1ccc(N[C@H](CCN2CCOCC2)CSc2ccccc2)c(S(=O)(=O)C(F)(F)F)c1)c1ccc(N2CCN(CC3=C(c4ccc(Cl)cc4)CCCC3)CC2)cc1
3.87

State its AUC: CN(C)CC[C@H](CSc1ccccc1)Nc1ccc(S(=O)(=O)NC(=O)c2ccc(N3CCN(CC4=C(c5ccc(Cl)cc5)CCCC4)CC3)cc2)cc1S(=O)(=O)C(F)(F)Cl
0.609
